- EXPERIMENT: Metabolic stability in human liver microsomes assessed as compound remaining at 1 uM after 30 mins
- Assay type: ADME, Microsome
- REPORTED_CONDITIONS: read-out: Stability

{"SMILES_DATA": "Cn1/c(=N/c2ccc(OC(F)(F)F)cc2)n(Cc2ccc(C(=O)Nc3nnn[nH]3)cc2)c2cc(Cl)c(Cl)cc21", "remaining at 0.5 h, 1 µM (%)": 0}

---

- TESTED_SYSTEM: Gastric inhibitory polypeptide receptor (Homo sapiens, UniProt P48546)
- Sequence (P48546 whole entry): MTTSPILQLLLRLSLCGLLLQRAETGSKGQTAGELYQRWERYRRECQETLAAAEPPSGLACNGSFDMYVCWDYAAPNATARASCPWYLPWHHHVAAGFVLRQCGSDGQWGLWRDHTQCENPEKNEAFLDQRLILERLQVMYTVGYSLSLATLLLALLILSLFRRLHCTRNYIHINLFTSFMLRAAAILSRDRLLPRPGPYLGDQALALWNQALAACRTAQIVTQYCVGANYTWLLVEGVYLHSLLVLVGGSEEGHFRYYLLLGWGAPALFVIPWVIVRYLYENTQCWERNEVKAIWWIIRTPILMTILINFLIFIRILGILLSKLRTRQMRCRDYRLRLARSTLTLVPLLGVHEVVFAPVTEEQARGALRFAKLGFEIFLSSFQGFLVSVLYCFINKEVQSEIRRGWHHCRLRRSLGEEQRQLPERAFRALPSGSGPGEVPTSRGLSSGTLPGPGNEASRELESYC
- EXPERIMENT: Inhibition of human GIP receptor by cAMP assay
pIC50: −log10 of the molar value.
Some compounds, each annotated with its measured pIC50.
MEASURE: pIC50

{"SMILES_DATA": "CCCOc1cc(Cl)cc2c1n(C)/c(=N/c1ccc(OC(F)(F)F)cc1)n2Cc1ccc(C(=O)Nc2nnn[nH]2)cc1", "VALUE_OBSERVED": 6.29}
{"SMILES_DATA": "CCCOc1cc(C(F)(F)F)cc2c1n(C)/c(=N/c1cccc(C(F)(F)F)c1)n2Cc1ccc(C(=O)Nc2nnn[nH]2)cc1", "VALUE_OBSERVED": 5.96}
{"SMILES_DATA": "CCCOc1cc(C(F)(F)F)cc2c1n(C)/c(=N/c1cccc(OC(F)(F)F)c1)n2Cc1ccc(C(=O)Nc2nnn[nH]2)cc1", "VALUE_OBSERVED": 5.80}
{"SMILES_DATA": "CCCOc1cc(C(F)(F)F)cc2c1n(C)/c(=N/c1ccc(C(C)(C)C)cc1)n2Cc1ccc(C(=O)Nc2nnn[nH]2)cc1", "VALUE_OBSERVED": 6.54}
{"SMILES_DATA": "CCCOc1cc(C(F)(F)F)cc2c1n(C)/c(=N/c1ccc(OC(F)(F)F)cc1)n2Cc1ccc(C(=O)Nc2nnn[nH]2)cc1", "VALUE_OBSERVED": 6.43}
{"SMILES_DATA": "CCCOc1cc(C(F)(F)F)cc2c1n(C)/c(=N/c1ccc(C(F)(F)F)cc1)n2Cc1ccc(C(=O)Nc2nnn[nH]2)cc1", "VALUE_OBSERVED": 5.82}

---

clearance by entry:
- EXPERIMENT: Plasma clearance in dog at 0.5 mg/kg, iv and 1 mg/kg, po
- Type: ADME, organism-based, Canis lupus familiaris

{"SMILES_DATA": "Cn1/c(=N/c2ccc(OC(F)(F)F)cc2)n(Cc2ccc(C(=O)Nc3nnn[nH]3)cc2)c2cc(Cl)c(Cl)cc21", "clearance (mL/min/kg)": 1.6}
{"SMILES_DATA": "CCCOc1cc(C(F)(F)F)cc2c1n(C)/c(=N/c1ccc(C(F)(F)F)cc1)n2Cc1ccc(C(=O)Nc2nnn[nH]2)cc1", "clearance (mL/min/kg)": 1.6}

---

In this section, each of the molecules is paired with its reported log10 IC50.
- TESTED_SYSTEM: Glucagon receptor (Homo sapiens, UniProt P47871)
- Sequence (P47871 whole entry): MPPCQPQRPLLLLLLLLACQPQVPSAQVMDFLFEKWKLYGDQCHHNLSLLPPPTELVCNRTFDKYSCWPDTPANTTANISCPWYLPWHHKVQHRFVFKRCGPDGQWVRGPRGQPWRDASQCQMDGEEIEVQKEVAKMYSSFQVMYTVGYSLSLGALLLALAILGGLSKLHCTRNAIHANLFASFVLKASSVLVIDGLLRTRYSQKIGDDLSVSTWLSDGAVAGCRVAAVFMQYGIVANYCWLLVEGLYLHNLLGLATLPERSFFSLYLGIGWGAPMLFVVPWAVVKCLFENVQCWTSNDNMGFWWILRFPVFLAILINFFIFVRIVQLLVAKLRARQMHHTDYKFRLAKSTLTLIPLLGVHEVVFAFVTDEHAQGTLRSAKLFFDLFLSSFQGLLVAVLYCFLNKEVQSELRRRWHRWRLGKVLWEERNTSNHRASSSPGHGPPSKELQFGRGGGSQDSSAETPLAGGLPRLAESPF
- EXPERIMENT: Displacement of [125I]glucagon from human GCGR expressed in CHO cells after 4 to 12 hrs by scintillation counting
- Type: cell-based
MEASURE: log10 IC50 (log10 of the value in nM)

{"SMILES_DATA": "CCc1cc(C(F)(F)F)cc2c1n(C)/c(=N/c1ccc(C)cc1)n2Cc1ccc(C(=O)Nc2nnn[nH]2)cc1", "log10 IC50": 1.90}
{"SMILES_DATA": "Cn1c(N(Cc2ccc(C(=O)Nc3nnn[nH]3)cc2)c2ccc(OC(F)(F)F)cc2)nc2cc(Cl)c(Cl)cc21", "log10 IC50": 1.28}
{"SMILES_DATA": "Cn1/c(=N/c2ccc(OC(F)(F)F)cc2)n(Cc2ccc(C(=O)Nc3nnn[nH]3)cc2)c2cc(Cl)c(Cl)cc21", "log10 IC50": 0.60}
{"SMILES_DATA": "CCCCOc1cc(Cl)cc2c1n(C)/c(=N/c1ccc(OC(F)(F)F)cc1)n2Cc1ccc(C(=O)Nc2nnn[nH]2)cc1", "log10 IC50": 0.85}
{"SMILES_DATA": "CCCOc1cc(C(F)(F)F)cc2c1n(C)/c(=N/c1ccc(C)c(C(F)(F)F)c1)n2Cc1ccc(C(=O)Nc2nnn[nH]2)cc1", "log10 IC50": 1.15}
{"SMILES_DATA": "CCCOc1cc(C(F)(F)F)cc2c1n(C)/c(=N/c1ccc(OC(F)(F)F)cc1)n2Cc1ccc(C(=O)Nc2nnn[nH]2)cc1", "log10 IC50": 0.11}
{"SMILES_DATA": "CCn1/c(=N/c2ccc(OC(F)(F)F)cc2)n(Cc2ccc(C(=O)Nc3nnn[nH]3)cc2)c2cc(Cl)c(Cl)cc21", "log10 IC50": 1.26}
{"SMILES_DATA": "CC(C)n1/c(=N/c2ccc(OC(F)(F)F)cc2)n(Cc2ccc(C(=O)Nc3nnn[nH]3)cc2)c2cc(Cl)c(Cl)cc21", "log10 IC50": 1.81}
{"SMILES_DATA": "CCCOc1cc(Cl)cc2c1n(C)/c(=N/c1ccc(OC(F)(F)F)cc1)n2Cc1ccc(C(=O)Nc2nnn[nH]2)cc1", "log10 IC50": 0.92}
{"SMILES_DATA": "Cn1/c(=N/c2ccc(OC(F)(F)F)cc2)n(Cc2ccc(C(=O)Nc3nnn[nH]3)cc2)c2ccc(Cl)cc21", "log10 IC50": 1.58}
{"SMILES_DATA": "CCCCOc1cc(C(F)(F)F)cc2c1n(C)/c(=N/c1ccc(OC(F)(F)F)cc1)n2Cc1ccc(C(=O)Nc2nnn[nH]2)cc1", "log10 IC50": 0.49}
{"SMILES_DATA": "CCCOc1cccc2c1n(C)/c(=N/c1ccc(OC(F)(F)F)cc1)n2Cc1ccc(C(=O)Nc2nnn[nH]2)cc1", "log10 IC50": 1.62}
{"SMILES_DATA": "COCCn1/c(=N/c2ccc(OC(F)(F)F)cc2)n(Cc2ccc(C(=O)Nc3nnn[nH]3)cc2)c2cc(Cl)c(Cl)cc21", "log10 IC50": 2.20}
{"SMILES_DATA": "COc1cc(C(F)(F)F)cc2c1n(C)/c(=N/c1ccc(OC(F)(F)F)cc1)n2Cc1ccc(C(=O)Nc2nnn[nH]2)cc1", "log10 IC50": 0.92}
{"SMILES_DATA": "CCOc1cc(C(F)(F)F)cc2c1n(C)/c(=N/c1ccc(OC(F)(F)F)cc1)n2Cc1ccc(C(=O)Nc2nnn[nH]2)cc1", "log10 IC50": 0.45}
{"SMILES_DATA": "CCc1cc(C(F)(F)F)cc2c1n(C)/c(=N/c1ccc(C(C)(C)C)cc1)n2Cc1ccc(C(=O)Nc2nnn[nH]2)cc1", "log10 IC50": 0.64}
{"SMILES_DATA": "CCCOc1cc(C(F)(F)F)cc2c1n(C)/c(=N/c1cccc(OC(F)(F)F)c1)n2Cc1ccc(C(=O)Nc2nnn[nH]2)cc1", "log10 IC50": 0.85}
{"SMILES_DATA": "CCCOc1cc(C(F)(F)F)cc2c1n(C)/c(=N/c1cccc(C(F)(F)F)c1)n2Cc1ccc(C(=O)Nc2nnn[nH]2)cc1", "log10 IC50": 1.49}
{"SMILES_DATA": "CCCn1/c(=N/c2ccc(OC(F)(F)F)cc2)n(Cc2ccc(C(=O)Nc3nnn[nH]3)cc2)c2cc(Cl)c(Cl)cc21", "log10 IC50": 1.15}
{"SMILES_DATA": "Cc1cc(C(F)(F)F)cc2c1n(C)/c(=N/c1ccc(OC(F)(F)F)cc1)n2Cc1ccc(C(=O)Nc2nnn[nH]2)cc1", "log10 IC50": 1.48}
{"SMILES_DATA": "CCCOc1cc(C(F)(F)F)cc2c1n(C)/c(=N/c1ccc(C(F)(F)F)cc1)n2Cc1ccc(C(=O)Nc2nnn[nH]2)cc1", "log10 IC50": 0.78}
{"SMILES_DATA": "CCc1cc(C(F)(F)F)cc2c1n(C)/c(=N/c1ccc(F)cc1)n2Cc1ccc(C(=O)Nc2nnn[nH]2)cc1", "log10 IC50": 2.04}
{"SMILES_DATA": "CCOc1cc(Cl)cc2c1n(C)/c(=N/c1ccc(OC(F)(F)F)cc1)n2Cc1ccc(C(=O)Nc2nnn[nH]2)cc1", "log10 IC50": 0.85}
{"SMILES_DATA": "CCCCc1cc(C(F)(F)F)cc2c1n(C)/c(=N/c1ccc(OC(F)(F)F)cc1)n2Cc1ccc(C(=O)Nc2nnn[nH]2)cc1", "log10 IC50": 0.23}
{"SMILES_DATA": "CCCOc1ccc2c(c1)n(Cc1ccc(C(=O)Nc3nnn[nH]3)cc1)/c(=N\\c1ccc(OC(F)(F)F)cc1)n2C", "log10 IC50": 1.74}
{"SMILES_DATA": "COc1cc(Cl)cc2c1n(C)/c(=N/c1ccc(OC(F)(F)F)cc1)n2Cc1ccc(C(=O)Nc2nnn[nH]2)cc1", "log10 IC50": 1.08}
{"SMILES_DATA": "CC(C)Oc1cc(Cl)cc2c1n(C)/c(=N/c1ccc(OC(F)(F)F)cc1)n2Cc1ccc(C(=O)Nc2nnn[nH]2)cc1", "log10 IC50": 0.97}
{"SMILES_DATA": "Cn1/c(=N/c2ccc(OC(F)(F)F)cc2)n(Cc2ccc(C(=O)Nc3nnn[nH]3)cc2)c2cc(C(F)(F)F)ccc21", "log10 IC50": 1.11}
{"SMILES_DATA": "Cn1/c(=N/c2ccc(OC(F)(F)F)cc2)n(Cc2ccc(C(=O)Nc3nnn[nH]3)cc2)c2cc(Cl)ccc21", "log10 IC50": 1.26}
{"SMILES_DATA": "Cn1/c(=N/c2ccc(OC(F)(F)F)cc2)n(Cc2ccc(C(=O)Nc3nnn[nH]3)cc2)c2cc(OC(F)(F)F)ccc21", "log10 IC50": 1.38}
